Value source: PubChem BioAssay

# SYSTEM_UNDER_TEST: Alpha-bungarotoxin (Bungarus multicinctus)
# ASSAY_PROTOCOL: alpha-bungarotoxin binders on microarray, profiling panel, artefact control for SMM control protein annotation, biochemical, small-molecule microarray, Alexa647 label, 635/667 nm fluorescence (AID 1117)
# RUN_PARAMETERS: alpha-BTX-A647 binding fluorescence, higher = more signal
Give y when the value for composite z-score is at least 0.7. Give n when it is less.

Task: Is reported composite z-score greater than or equal to 0.7 here: CC(C)(C)OC(=O)CC[C@]1(C(=O)NCCN2CCOCC2)N=C(c2ccc(OCCCO)cc2)O[C@H]1c1ccccc1
Result: y

Task: Here is the next compound: CC(C)C(=C=CC[C@@H](O)c1ccccc1OCCO)C[C@@H](O)COCc1ccccc1
Result: n

Task: Try the compound O=C1O[C@@H](c2ccccc2)[C@@H](c2ccccc2)N2[C@@H](c3ccccc3OCCO)[C@]3(C(=O)Nc4ccc(C#CCCO)cc43)[C@@H](C(=O)N3CCN(c4ncccn4)CC3)[C@H]12
Result: y

Task: What do we get for C=CC[C@]1(C(=O)N(C)C)N=C(c2ccc(OCCCO)cc2)O[C@H]1c1ccccc1N=[N+]=[N-] ?
Result: y

Task: Let us now turn to C=CC1c2cc(O)c(OC)cc2CCN1Cc1sc2ccccc2c1Cl (centres undefined)
Result: y

Task: What do you get for CCOC(=O)C1=CC[C@@H](c2ccccc2)N(S(=O)(=O)c2ccc(C)cc2)C1 ?
Result: n

Task: Same lookup for CC(C)(C)OC(=O)CC[C@@]1(C(=O)O)N=C(c2ccc(OCCCO)cc2)O[C@@H]1c1ccccc1 , please.
Result: y
